Assayed Target: FKBP12 (Homo sapiens, UniProt P62942)
Sequence (P62942 whole entry, species assumed): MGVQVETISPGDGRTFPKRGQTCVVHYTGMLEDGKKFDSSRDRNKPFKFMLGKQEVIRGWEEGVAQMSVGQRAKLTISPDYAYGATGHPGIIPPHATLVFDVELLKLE
Test Method Notes: Ki test procedure: inhibition of peptidyl-prolyl isomerase (rotamase) activity of FKBP12, chymotrypsin-coupled assay
Type: biochemical
Condition Label: apparent Ki, FKBP12 rotamase inhibition
Value Type: Ki

{"Molecule": "O=C(SCCCc1cccnc1)C1CCCN1C(=S)NC12CC3CC(CC(C3)C1)C2 (stereo not drawn)", "Assayed Target": "FKBP12 (Homo sapiens, UniProt P62942)", "Ki": "0.001 to 0.05 µM"}
{"Molecule": "CCC(C)(C)NC(=O)N1CCCC1C(=O)SCCCc1ccc(OC)cc1 (stereo not drawn)", "Assayed Target": "FKBP12 (Homo sapiens, UniProt P62942)", "Ki": "0.051 to 0.2 µM"}

Q) Write Ki of O=C(SC(CCc1ccccc1)CCc1ccccc1)C1CCCCN1C(=O)Nc1ccccc1 (stereo not drawn) ; system used: FKBP12 (Homo sapiens, UniProt P62942)
A) 0.001 to 0.05 µM

# credit: patent US20040186098A1
